# assay-summary: GHB toxicokinetic study, i.v. bolus, plasma and urine up to 8 h, noncompartmental analysis
# Format: in vivo, Sprague Dawley rats
# experimental-parameters: male, Sprague-Dawley, rat, plasma, iv, 1500 mg/kg, 1500 mg/kg GHB + 1mg/kg AR-C 155858 iv; CST testosterone placebo rats; read-out: CL (total clearance)
observable: clearance (mL/min/kg)

[[record]]
compound = "O=C(O)CCCO [GHB, Γ-hydroxybutyric acid]"
unit_label = "mL/min/kg"
measured_number = 7.9


* * *

# assay-summary: GHB toxicokinetic study, i.v. bolus, plasma and urine up to 8 h, noncompartmental analysis
# Type: in vivo, Sprague Dawley rats
# experimental-parameters: male, Sprague-Dawley, rat, plasma and urine, iv, 1500 mg/kg, 1500 mg/kg GHB + 1mg/kg AR-C 155858 iv; CST testosterone placebo rats; read-out: CLR (renal clearance)
observable: CL renal (mL/min/kg)

[[record]]
compound = "O=C(O)CCCO [GHB, Γ-hydroxybutyric acid]"
measured_number = 5.4


* * *

# assay-summary: GHB toxicokinetic study, i.v. bolus, plasma and urine up to 8 h, noncompartmental analysis
# Format: in vivo, Sprague Dawley rats
# experimental-parameters: female, Sprague-Dawley, rat, plasma, iv, 1500 mg/kg, 1500 mg/kg GHB + 1mg/kg AR-C 155858 iv; OVX testosterone placebo rats; read-out: CL (total clearance)
observable: clearance (mL/min/kg)

[[record]]
molecule = "O=C(O)CCCO [GHB, Γ-hydroxybutyric acid]"
observable = "clearance"
measured_number = 9.7


* * *

# assay-summary: GHB toxicokinetic study, i.v. bolus, plasma and urine up to 8 h, noncompartmental analysis
# Format: in vivo, Sprague Dawley rats
# experimental-parameters: male, Sprague Dawley, rat, plasma and urine, iv, 1000 mg/kg, 1000 mg/kg GHB iv; CST testosterone rats; read-out: CLm – Metabolic clearance
observable: clearance (L/h/kg)

[[record]]
compound = "O=C(O)CCCO [GHB, Γ-hydroxybutyric acid]"
measured_number = 0.126


* * *

# assay-summary: GHB toxicokinetic study, i.v. bolus, plasma and urine up to 8 h, noncompartmental analysis
# Assay type: in vivo, Sprague Dawley rats
# experimental-parameters: female, Sprague-Dawley, rat, plasma, iv, 1500 mg/kg, 1500 mg/kg GHB iv; OVX testosterone placebo rats; read-out: CL (total clearance)
observable: clearance (mL/min/kg)

[[record]]
compound = "O=C(O)CCCO [GHB, Γ-hydroxybutyric acid]"
unit_label = "mL/min/kg"
measured_number = 5.7


* * *

# assay-summary: GHB toxicokinetic study, i.v. bolus, plasma and urine up to 8 h, noncompartmental analysis
# Type: in vivo, Sprague Dawley rats
# experimental-parameters: male, Sprague-Dawley, rat, plasma, iv, 1500 mg/kg, 1500 mg/kg GHB + 1mg/kg AR-C 155858 iv; intact male rats; read-out: CL (total clearance)
observable: clearance (mL/min/kg)

[[record]]
compound = "O=C(O)CCCO [GHB, Γ-hydroxybutyric acid]"
measured_number = 8.2


* * *

# assay-summary: GHB toxicokinetic study, i.v. bolus, plasma and urine up to 8 h, noncompartmental analysis
# Assay type: in vivo, Sprague Dawley rats
# experimental-parameters: male, Sprague Dawley, rat, plasma, iv, 1500 mg/kg, 1500 mg/kg GHB iv; intact male rats; read-out: CL (total clearance)
observable: clearance (mL/min/kg)

[[record]]
molecule = "O=C(O)CCCO [GHB, Γ-hydroxybutyric acid]"
measured_number = 4.8

